target: steroid sulfatase (STS) (Homo sapiens, UniProt P08842); construct: from tissue; host or cells: human term placenta, microsomal fraction; assay: STS inhibition, in vitro radiosubstrate incubation (release of E1 from E1S), human placental microsomes; Dixon kinetic analysis; type: biochemical; conditions: E1S substrate 1.0 µM; read-out: STS IC50 ± SD
Sequence (P08842 22-583): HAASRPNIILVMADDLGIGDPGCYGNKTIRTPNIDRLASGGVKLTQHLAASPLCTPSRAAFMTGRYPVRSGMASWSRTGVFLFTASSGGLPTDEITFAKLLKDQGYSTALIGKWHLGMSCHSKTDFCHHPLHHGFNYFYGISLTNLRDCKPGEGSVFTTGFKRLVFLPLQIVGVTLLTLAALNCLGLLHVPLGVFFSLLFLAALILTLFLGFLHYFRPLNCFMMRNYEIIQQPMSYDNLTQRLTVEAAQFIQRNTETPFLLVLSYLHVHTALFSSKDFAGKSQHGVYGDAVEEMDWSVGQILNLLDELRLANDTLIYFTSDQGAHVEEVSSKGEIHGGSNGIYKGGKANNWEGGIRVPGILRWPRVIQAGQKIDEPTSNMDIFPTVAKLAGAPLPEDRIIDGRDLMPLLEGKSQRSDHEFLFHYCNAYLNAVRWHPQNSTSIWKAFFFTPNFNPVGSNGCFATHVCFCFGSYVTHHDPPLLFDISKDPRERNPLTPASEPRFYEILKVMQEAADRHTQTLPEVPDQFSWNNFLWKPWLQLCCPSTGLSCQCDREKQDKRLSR
# note: exactly 2000 nM is not below, so it is not satisfied; use satisfied for IC50 strictly under it

compound	group
C[C@]12CCC[C@H]1[C@@H]1CCc3c(ccc(O)c3Br)[C@H]1CC2 [15b]	not satisfied
C[C@]12CCC[C@H]1[C@@H]1CCc3c(ccc(O)c3I)[C@H]1CC2 [15a]	not satisfied
C[C@@]12CC[C@@H]3c4cc(I)c(O)c(I)c4CC[C@H]3[C@@H]1CCC2=O [12a]	not satisfied
C[C@]12CC[C@@H]3c4ccc(O)c(I)c4CC[C@H]3[C@@H]1CCC2=O [7a, 4-iodoestrone]	satisfied
C[C@]12CC[C@@H]3c4cc(Cl)c(O)cc4CC[C@H]3[C@@H]1CCC2=O [6c, 2-Chloroestrone]	not satisfied
C[C@]12CC[C@@H]3c4cc(Br)c(O)c(Br)c4CC[C@H]3[C@@H]1CCC2=O [8b]	not satisfied
